Assay: chemical genetic growth profiling, strain panel (AID 1159580);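 also: tested at 20 µM; growth read once vehicle control cultures reached saturation at 30 °C; lower values mean less growth of the strain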
Settings: S. cerevisiae deletion strains, growth OD, locus YOR070C, strain gyp1
Among all 5,500 compounds or so, about 2,000 (36%) were called active. Another 18% or so got no clear call; they are omitted. Rule as the data show it: active = normalized growth mostly below about 0.91 (no sharp cut-off); inconclusive = no clear call, values can overlap the other calls; inactive = mostly above about 0.92. The list shows a part of the results.
// allowed return values: t (active), f (inactive)

[
  {
    "Compound": "c1ccc2c(c1)CN1CCCC1=N2",
    "Cat": "f"
  },
  {
    "Compound": "Clc1ccc2c(c1)C(N1CCNCC1)=Nc1ccccc1O2",
    "Cat": "f"
  },
  {
    "Compound": "C[C@@H](N)[C@@H](O)c1ccccc1",
    "Cat": "f"
  },
  {
    "Compound": "N[C@@H]1[C@@H](O)[C@H](O)[C@@H](CO)O[C@H]1O",
    "Cat": "f"
  }
]

Now for another entry.
Ask: Which outcome was assigned to CC(=O)OCC(=O)[C@@]1(O)[C@H](OC(C)=O)CC2C3CCC4=CC(=O)C=C[C@]4(C)[C@@]3(F)[C@@H](O)C[C@@]21C (stereo not given in full) in this test?
Result: f

Data credit: PubChem BioAssay AID1159580
